# testedSystem: DNA polymerase eta (Homo sapiens)
# experimentDescription: qHTS for Inhibitors of Polymerase Eta
# measurementSetup: recombinant Pol eta, fluorescent DNA replication assay; series mostly up to 114 µM
# Source text: The Y-family of DNA polymerases, such as Pol eta, are specifically involved in DNA repair. Pol eta copies undamaged DNA with a lower fidelity than other DNA-directed polymerases. However, it accurately replicates UV-damaged DNA; when thymine dimers are present, this polymerase inserts the complementary nucleotides in the newly synthesized DNA, thereby bypassing the lesion and suppressing the mutagenic effect of UV-induced DNA damage. […]
Among all 390,000 compounds or so, about 4,700 (1.2%) were called active. About 4% were inconclusive and are not listed. The call rests on the fitted dose curve; in most records, active means well fitted inhibition curve with a large enough effect; inconclusive means small, poorly fitted or top-dose-only effect, or another doubt; inactive means no such curve, though single readings can be large or run the other way. This excerpt belongs to a sample that is enriched for actives.
A correct response names exactly one class from active, inactive

Example entries and their recorded answers appear below.
NC(=O)CSc1nnc(NC(=O)c2ccc(Br)o2)s1
active
COc1ccccc1OCCCn1c(-c2ccc(Cl)cc2)nc2ccccc2c1=O
inactive
Cc1cccc(C(=O)NC(=S)N2CCN(c3ccc([N+](=O)[O-])cc3)CC2)c1
inactive

Request: What is the recorded call for this compound in the test? "CC(C)Cn1c(=O)c2ccccc2n2c(CCC(=O)N3CCN(c4cccc(Cl)c4)CC3)nnc12"
Result: inactive

Request: How did this test come out for COc1ccccc1CNC(=O)C(=O)NCC(c1cccs1)S(=O)(=O)c1cccs1 (stereo unspecified) ?
Result: inactive

Request: Called result for CC(c1nnc(SCC(=O)Nc2sccc2C#N)n1-c1ccc(Cl)cc1)N(C)C (stereo unspecified)
Result: inactive

====

# testedSystem: DNA polymerase eta (Homo sapiens)
# experimentDescription: qHTS for Inhibitors of Polymerase Eta
# measurementSetup: recombinant Pol eta, fluorescent DNA replication assay; series mostly up to 114 µM
Among all 390,000 compounds or so, about 4,700 (1.2%) were called active. Inconclusive results (about 4%) are left out. The call rests on the fitted dose curve; in most records, active means well fitted inhibition curve with a large enough effect; inconclusive means small, poorly fitted or top-dose-only effect, or another doubt; inactive means no such curve, though single readings can be large or run the other way. For the sample, actives were picked, then their nearest neighbours and some compounds at random.
Hi there, use one of these labels in your reply, thanks! y (active), n (inactive)

O=C(CN1CCCCCC1)Nc1ccc(Br)cc1[N+](=O)[O-]
n

Request: Outcome? "CCN(CC(=O)NCc1cccs1)C(=O)c1cccc(S(=O)(=O)Nc2ccccc2OC)c1"
Result: n

Request: What did the test return for "Cc1ccc(NS(=O)(=O)c2ccc3c(c2)n(C)c(=O)c(=O)n3C)c(C)c1" ?
Result: n

Request: Field: outcome | Entry: "Cc1ccc(NS(=O)(=O)c2ccc(N/N=C/c3ccccc3OCC(=O)O)c([N+](=O)[O-])c2)c(C)c1"
Result: y

Request: For "COC(=O)c1ccccc1NS(=O)(=O)c1ccc2c(c1)CCCN2C(C)=O" , which call appears in the assay record?
Result: n

====

# testedSystem: DNA polymerase eta (Homo sapiens) (UniProt Q9Y253)
# Sequence (Q9Y253 whole entry, looked up): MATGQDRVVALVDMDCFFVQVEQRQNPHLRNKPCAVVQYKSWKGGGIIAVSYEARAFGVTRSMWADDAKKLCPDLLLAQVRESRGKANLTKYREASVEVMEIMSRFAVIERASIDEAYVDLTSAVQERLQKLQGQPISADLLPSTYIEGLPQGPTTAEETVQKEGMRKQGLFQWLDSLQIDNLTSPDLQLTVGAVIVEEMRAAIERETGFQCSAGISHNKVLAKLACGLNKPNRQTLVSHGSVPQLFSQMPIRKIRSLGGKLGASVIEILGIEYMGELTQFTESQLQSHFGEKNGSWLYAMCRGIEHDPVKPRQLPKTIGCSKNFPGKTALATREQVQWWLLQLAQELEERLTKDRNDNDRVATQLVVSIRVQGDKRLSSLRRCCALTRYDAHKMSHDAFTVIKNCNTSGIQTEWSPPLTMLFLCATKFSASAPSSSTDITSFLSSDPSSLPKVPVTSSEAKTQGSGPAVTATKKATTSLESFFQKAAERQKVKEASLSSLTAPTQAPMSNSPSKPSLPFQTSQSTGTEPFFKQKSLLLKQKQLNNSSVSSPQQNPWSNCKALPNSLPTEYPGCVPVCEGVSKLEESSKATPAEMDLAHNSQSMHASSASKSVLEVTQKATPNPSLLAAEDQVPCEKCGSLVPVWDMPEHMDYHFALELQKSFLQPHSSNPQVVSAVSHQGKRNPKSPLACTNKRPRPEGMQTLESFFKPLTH
# experimentDescription: qHTS for Inhibitors of Polymerase Eta
# measurementSetup: recombinant Pol eta, fluorescent DNA replication assay; series mostly up to 114 µM
The whole screen tested about 390,000 compounds, of which about 4,700 (1.2%) were called active. Another 4% or so got no clear call; they are omitted. Calls come from the whole dose curve; as a rule, active = well fitted inhibition curve with a large enough effect; inconclusive = small, poorly fitted or top-dose-only effect, or another doubt; inactive = no such curve, though single readings can be large or run the other way. Many of the other results were omitted from the sample, so actives are more common in it than they were.
One label from this list, please: true (active), false (inactive)

CCc1nc2cccnc2n1-c1ccc(C(=O)O)cc1
true
CCOc1ccc(NC(=O)C(C)N2C(=O)c3ccccc3C2=O)cc1 (stereo not given)
false
O=C1/C(=C/c2cccs2)SC(=S)N1C1CCS(=O)(=O)C1 (stereo not given)
false
Cc1ccc(-n2c(=O)c3cccnc3n2CC(=O)NCc2ccc(F)cc2)cc1C
false

Note: attention shifts to another entry.
Request: For "CCOC(=O)c1c(S(=O)(=O)NCC(=O)Nc2ccc(Cl)c(C(F)(F)F)c2)c(C)n(C)c1C" , what call appears in the results of this test?
Result: false

Cited source: PubChem BioAssay AID588591
